Below, each entry is listed with its recorded growth.
test system: SK-MEL-2 melanoma; experiment: NCI-60 one-dose screen, 48 h (100 = growth as untreated, 0 = no growth, -100 = all killed); details: 10 µM unless noted
The panel holds about 83,000 compounds, 20% with a hit somewhere; the sample as a whole holds those more often.
recordedMetric: growth (%)

compound | recordedMetric | valueReported
COc1ncnc2c1ncn2C/C(Br)=C(\Br)CCl | growth | 51.6
COc1ccc(CSc2nc3cc(OC)c(OC)cc3c(=O)n2-c2ccc(Cl)cc2)cc1 | growth | 110
O=C1c2[nH]cc(CN[C@@H]3CCCN3)c2C(=O)c2c1c(O)c1ccccc1c2O | growth | -17.3
COC1(OC)C2(Cl)C=C(c3ccccc3)C1(Cl)C(Cl)=C2Cl (stereo not given) | growth | 87
Nc1nc(N)c(C=Nc2ccc(Br)cc2)c(Nc2ccc(Br)cc2)n1 | growth | 108
